Molecular target: D(2) dopamine receptor (Rattus norvegicus) (UniProt P61169)
Sequence (P61169 whole entry): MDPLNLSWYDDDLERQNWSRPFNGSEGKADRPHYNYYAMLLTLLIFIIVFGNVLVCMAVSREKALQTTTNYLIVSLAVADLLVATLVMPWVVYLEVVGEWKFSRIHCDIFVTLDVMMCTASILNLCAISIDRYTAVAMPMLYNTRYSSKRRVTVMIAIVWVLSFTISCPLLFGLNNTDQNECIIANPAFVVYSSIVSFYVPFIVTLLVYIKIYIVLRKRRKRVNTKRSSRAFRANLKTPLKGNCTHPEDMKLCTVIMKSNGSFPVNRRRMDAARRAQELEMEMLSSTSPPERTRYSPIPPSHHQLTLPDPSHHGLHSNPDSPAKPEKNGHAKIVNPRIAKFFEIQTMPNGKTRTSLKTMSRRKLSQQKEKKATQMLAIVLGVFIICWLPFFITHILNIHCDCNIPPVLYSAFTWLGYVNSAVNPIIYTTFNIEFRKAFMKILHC
Assay: In vivo antagonistic activity against dopamine D2 receptor was measured as catalepsy in rat when administered subcutaneously
Type: functional, organism-based
measurement_name: ED50

For orientation, consider the following solved cases.
INSERT INTO assay_data (molecule, experimental_system, result) VALUES
  ('CCN(CC)CCN(C)C(=O)c1cc(Cl)c(N)cc1OC', 'D(2) dopamine receptor (Rattus norvegicus) (UniProt P61169)', '> 40 mg/kg'),
  ('CCN(CC)CCNC(=O)c1cc(Cl)c(N)cc1OCC#N', 'D(2) dopamine receptor (Rattus norvegicus) (UniProt P61169)', '> 40 mg/kg');

What value of ED50 has been reported for the following molecule? `C/C=C/COc1cc(N)c(Cl)cc1C(=O)NCCN(CC)CC`
> 40 mg/kg

Sample CCN(CC)CCNC(=O)c1cc(Cl)c(N)cc1OC(C)C(C)O (stereo in doubt; 8h) — what was its ED50?
> 40 mg/kg
